The measured values listed here are drawn from patent US20240002516A1.

- SYSTEM_TESTED: T1, extracellular domain (ECD) of human TrkA protein, N-terminal flag tag and C-terminal His tag (PHA) (human, UniProt P04629 33-423)
- T1 construct: Made in 293-F cells and purified by IMAC; also called TrkA ECD protein; TrkA (ECD); not shown: flag tag at the N-terminus (after the signal peptide); His tag at the C-terminus
- METHOD_DESCRIPTION: BLI (Octet Red384), antibody captured on anti-human Fc AHQ tips, antigen 100 nM
ASSAY_METRIC: Kd (nM)
Field: numeric (nM). Do not append units.

Use these answered entries as a reference point.
>  <BINDER>
PHD48-01 (humanized muPHD48) (antibody, human IgG4, V domains shown) VH: QVQLVQSGAEVKKPGASVKVSCKASGYSFTTYWMHWVRQAPGQGLEWIGTIYPGNSDSSNNQKFKGRATLTADTSTSTAYMELSSLRSEDTAVYYCTRFYYEDWYFDVWGQGTMVTVSS VL: DIQMTQSPSSLSASVGDRVTITCSASSSVSYMYWFQQKPGKAPKPWIYRTSNLASGVPSRFSGSGSGTDYTLTISSLQPEDFATYYCQQYHSYPPTFGGGTKVEIK

>  <Kd [nM]>
3.07

$$$$
>  <BINDER>
chi-PHD48 (the chimeric antibody derived from muPHD48) (antibody, V domains shown, Chimeric: VH in the pCDNA3.4-hIgG4 vector and VL in the pCDNA3.4-hKappa vector (human IgG4 / human kappa constant regions)) VH: EVQLQQSGTVLARPGASVKMSCKASGYSFTTYWMHWVKQRPGQGLEWIGTIYPGNSDSSNNQKFKGKAKLTAVTSASTAYMELSSLTNEDSAVYYCTRFYYEDWYFDVWGAGTTVTVSS VL: QIVLTQSPAIMSASPGEKVTISCSASSSVSYMYWFQQKPGSSPKPWIYRTSNLASGVPARFSGSGSGTSYSLTISSMEAEDAATYYCQQYHSYPPTFGGGTKLEIK

>  <Kd [nM]>
5.33

$$$$
>  <BINDER>
PHD49-01 (humanized muPHD49) (antibody, human IgG4, V domains shown) VH: QVQLVQSGAEVKKPGSSVKVSCKASGYTFSSYWMQWVRQAPGQGLEWIGAIYPGDDDTIYTQKFKGRATLTADKSTSTAYMELSSLRSEDTAVYYCARNYDYQAWFAYWGQGTLVTVSS VL: DIQMTQSPSSLSASVGDRVTITCSASSSVSYMYWYQQKPGKAPKPWIYLTSNLASGVPSRFSGSGSGTDYTLTISSLQPEDFATYYCQQWSSNPLTFGQGTKLEIK

>  <Kd [nM]>
4.84

$$$$

Here is another binder to look at.
input: Fill in: Kd of chi-PHD49 (antibody, V domains shown, Chimeric: human IgG4 / human kappa constant regions (pCDNA3.4-hIgG4 and pCDNA3.4-hKappa vectors)) VH: QVQLQQSGAELARPGASVKLSCKASGYTFSSYWMQWVKQRPGQGLEWIGAIYPGDDDTIYTQKFKGKATLTADKSSSTAYMQLSSLASEDSAVYYCARNYDYQAWFAYWGQGTLVTVSA VL: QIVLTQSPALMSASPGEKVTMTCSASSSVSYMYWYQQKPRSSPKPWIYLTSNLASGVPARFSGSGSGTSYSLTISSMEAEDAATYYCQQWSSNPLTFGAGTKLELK is ___
output: 1.79
